biological target: T1, murine GPC3-His protein (murine, UniProt Q8CFZ4 25-558, limits assumed); assay: SPR, antibody captured on Protein A chip, murine GPC3-His injected
T1 construct: bought protein; also called murine GPC3 protein
T1 sequence (Q8CFZ4 25-558 limits assumed): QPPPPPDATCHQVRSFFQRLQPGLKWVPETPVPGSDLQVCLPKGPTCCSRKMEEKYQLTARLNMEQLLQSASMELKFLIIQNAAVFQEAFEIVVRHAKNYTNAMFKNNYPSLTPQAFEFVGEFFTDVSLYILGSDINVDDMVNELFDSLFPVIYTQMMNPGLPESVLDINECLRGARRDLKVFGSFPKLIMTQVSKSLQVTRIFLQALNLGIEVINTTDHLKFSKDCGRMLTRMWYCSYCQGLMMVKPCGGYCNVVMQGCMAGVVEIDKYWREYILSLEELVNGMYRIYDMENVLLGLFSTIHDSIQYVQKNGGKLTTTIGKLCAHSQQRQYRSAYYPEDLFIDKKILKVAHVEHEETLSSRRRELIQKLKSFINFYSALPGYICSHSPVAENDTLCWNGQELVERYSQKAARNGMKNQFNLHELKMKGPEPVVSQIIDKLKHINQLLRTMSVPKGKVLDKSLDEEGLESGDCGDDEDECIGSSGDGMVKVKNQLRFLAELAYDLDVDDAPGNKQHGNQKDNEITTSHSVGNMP

binder	kon
F1.2.14 (antibody, human IgG1, kappa, V domains shown, human-murine chimeric antibody) VH: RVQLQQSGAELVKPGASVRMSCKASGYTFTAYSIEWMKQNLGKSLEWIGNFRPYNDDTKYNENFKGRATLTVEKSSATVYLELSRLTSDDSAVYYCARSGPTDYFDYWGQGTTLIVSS VL: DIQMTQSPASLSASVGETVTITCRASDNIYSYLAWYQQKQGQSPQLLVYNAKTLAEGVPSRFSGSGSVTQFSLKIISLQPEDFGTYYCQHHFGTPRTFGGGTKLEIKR	174000 M⁻¹ s⁻¹
F1.111.11 (antibody, human IgG1, kappa, V domains shown, human-murine chimeric antibody) VH: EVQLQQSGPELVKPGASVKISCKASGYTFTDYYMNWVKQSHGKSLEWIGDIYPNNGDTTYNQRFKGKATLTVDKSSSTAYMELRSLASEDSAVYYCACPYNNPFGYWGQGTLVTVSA VL: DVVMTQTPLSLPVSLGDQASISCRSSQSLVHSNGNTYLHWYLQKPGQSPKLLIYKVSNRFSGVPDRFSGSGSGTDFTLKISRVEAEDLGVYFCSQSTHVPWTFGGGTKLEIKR	129000 M⁻¹ s⁻¹
F4.26.1 (antibody, human IgG1, kappa, V domains shown, human-murine chimeric antibody) VH: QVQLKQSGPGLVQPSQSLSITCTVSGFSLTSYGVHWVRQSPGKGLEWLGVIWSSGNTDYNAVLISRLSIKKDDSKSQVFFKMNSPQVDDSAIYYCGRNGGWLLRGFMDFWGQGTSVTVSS VL: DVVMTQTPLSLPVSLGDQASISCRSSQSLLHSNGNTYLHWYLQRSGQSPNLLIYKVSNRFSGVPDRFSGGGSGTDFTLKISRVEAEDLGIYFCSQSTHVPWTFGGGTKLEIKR	492000 M⁻¹ s⁻¹
F1.21.8 (antibody, human IgG1, kappa, V domains shown, human-murine chimeric antibody) VH: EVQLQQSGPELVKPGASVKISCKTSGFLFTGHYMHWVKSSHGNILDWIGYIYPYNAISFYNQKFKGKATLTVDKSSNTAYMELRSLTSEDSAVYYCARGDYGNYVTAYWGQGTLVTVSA VL: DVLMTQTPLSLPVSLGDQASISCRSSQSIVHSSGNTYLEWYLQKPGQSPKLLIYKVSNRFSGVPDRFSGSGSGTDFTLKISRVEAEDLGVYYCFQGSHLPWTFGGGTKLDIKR	628000 M⁻¹ s⁻¹
